target: T1, IL-9-His recombinant protein (UniProt P15248 19-144); test: ELISA on IL-9-His, 293F culture supernatant, antibody concentration 1 µg/mL (second well)
T1 construct: range 19-144; used as coating antigen in the ELISAs; also called IL9 (19-144)-His; not shown: His tag, C-terminal by the vector name
T1 sequence (P15248 19-144 limits assumed, form in doubt): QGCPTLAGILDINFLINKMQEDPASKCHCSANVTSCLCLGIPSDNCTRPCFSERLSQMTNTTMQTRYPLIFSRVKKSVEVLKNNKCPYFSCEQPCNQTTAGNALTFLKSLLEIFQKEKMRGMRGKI
experimental-readout: ELISA OD450 (OD450)
Form entry: value (OD450) — number only.

Exam item: Return reported ELISA OD450; argument: 22-F2-E9-C8 chimeric antibody (CA4) (antibody, V domains shown) VH: EVQVVESGPGLVKPSQSLSLTCSVTGSSFTSGYYWNWIRQFPGNKLEWMGYIRYDGSNNYNPSLKNRISITRDTSKNQFFLKLNSVTSEDTATYYCASYGSSYDAMDYWGQGTSVTVSS VL: DIQLTQPPASLSASVGETVTITCRASENIDSYLAWYQQKQGKSPQLLVYAATLLADGVPSRFSGSGSGTQYSLKINSLQSEDVARYYCQHYYSTPWTFGGGTKLELK
Marked response: 2.59

Exam item: Return reported ELISA OD450; argument: 29-B9-F5-B6 chimeric antibody (CA3) (antibody, V domains shown) VH: EVQLQESGAELMKPGASVKISCKATGYTFSSYWIEWVKQRPGHGLEWIGQILPGSGSNNYNERFKGKATFTADTSSNTAYMQLSSLTSEDSAVYYCAREGNYGEAWFAYWGQGTLVTVSA VL: DILLTQSPATLSVTPGDSVSLSCRASQSISNNLHWYQQKSHESPRLLIKYASQSMSGIPSRFSGSGSGTDFTLSINSVETEDFGMYFCQQSNSWPLTFGAGTKLELK
Marked response: 2.62

Exam item: Return reported ELISA OD450; argument: 38-D8-C7-G9 chimeric antibody (CA1) (antibody, V domains shown, also called CA1 antibody; human-mouse chimeric antibody CA1) VH: EVQLKQSGAELMKPGASVKLSCKATGYTFTGYWIEWVKLRPGHGLEWIGEILPGSGSTNYNEEFKGKATFTADTSSNTAYMQLNSLTTEDSAIYYCARRTYYYGIPEDYWGQGTSVTVSS VL: DIVMTQSQKFMSTSVGDRVSVTCKASQNVGTNVAWHQQKPGQSPKPLIYSASYRYSGVPDRFTGSGSGTDFTLTISNVQSEDLAEYFCQQYNSYPLTFGAGTKLELK
Marked response: 2.55

Exam item: Return reported ELISA OD450; argument: 31-D6-B8-B8 chimeric antibody (CA2) (antibody, V domains shown) VH: EVQLKESGPGLVKPSQSLSLTCSVTGYSSTSGYYWNWIRQFPGNKLEWMGYIRYDGSSNHNPSLKNRISITRDTSKNQFFLKLNSVTTEDTATYYCASYGITYDAMDYWGQGTSVTVSS VL: DIQLTQPPASLSASVGETVTITCRASENIDSYLAWYQQKQGKSPQLLVYAATLLADGVPSRFSGSGSGTQYSLKINSLQSEDVARYYCQHYYSTPWTFGGGTKLELK
Marked response: 2.62
